- Test system: Cystic fibrosis transmembrane conductance regulator (Homo sapiens), P13569 [F508del]
- Sequence (P13569 as listed by the source): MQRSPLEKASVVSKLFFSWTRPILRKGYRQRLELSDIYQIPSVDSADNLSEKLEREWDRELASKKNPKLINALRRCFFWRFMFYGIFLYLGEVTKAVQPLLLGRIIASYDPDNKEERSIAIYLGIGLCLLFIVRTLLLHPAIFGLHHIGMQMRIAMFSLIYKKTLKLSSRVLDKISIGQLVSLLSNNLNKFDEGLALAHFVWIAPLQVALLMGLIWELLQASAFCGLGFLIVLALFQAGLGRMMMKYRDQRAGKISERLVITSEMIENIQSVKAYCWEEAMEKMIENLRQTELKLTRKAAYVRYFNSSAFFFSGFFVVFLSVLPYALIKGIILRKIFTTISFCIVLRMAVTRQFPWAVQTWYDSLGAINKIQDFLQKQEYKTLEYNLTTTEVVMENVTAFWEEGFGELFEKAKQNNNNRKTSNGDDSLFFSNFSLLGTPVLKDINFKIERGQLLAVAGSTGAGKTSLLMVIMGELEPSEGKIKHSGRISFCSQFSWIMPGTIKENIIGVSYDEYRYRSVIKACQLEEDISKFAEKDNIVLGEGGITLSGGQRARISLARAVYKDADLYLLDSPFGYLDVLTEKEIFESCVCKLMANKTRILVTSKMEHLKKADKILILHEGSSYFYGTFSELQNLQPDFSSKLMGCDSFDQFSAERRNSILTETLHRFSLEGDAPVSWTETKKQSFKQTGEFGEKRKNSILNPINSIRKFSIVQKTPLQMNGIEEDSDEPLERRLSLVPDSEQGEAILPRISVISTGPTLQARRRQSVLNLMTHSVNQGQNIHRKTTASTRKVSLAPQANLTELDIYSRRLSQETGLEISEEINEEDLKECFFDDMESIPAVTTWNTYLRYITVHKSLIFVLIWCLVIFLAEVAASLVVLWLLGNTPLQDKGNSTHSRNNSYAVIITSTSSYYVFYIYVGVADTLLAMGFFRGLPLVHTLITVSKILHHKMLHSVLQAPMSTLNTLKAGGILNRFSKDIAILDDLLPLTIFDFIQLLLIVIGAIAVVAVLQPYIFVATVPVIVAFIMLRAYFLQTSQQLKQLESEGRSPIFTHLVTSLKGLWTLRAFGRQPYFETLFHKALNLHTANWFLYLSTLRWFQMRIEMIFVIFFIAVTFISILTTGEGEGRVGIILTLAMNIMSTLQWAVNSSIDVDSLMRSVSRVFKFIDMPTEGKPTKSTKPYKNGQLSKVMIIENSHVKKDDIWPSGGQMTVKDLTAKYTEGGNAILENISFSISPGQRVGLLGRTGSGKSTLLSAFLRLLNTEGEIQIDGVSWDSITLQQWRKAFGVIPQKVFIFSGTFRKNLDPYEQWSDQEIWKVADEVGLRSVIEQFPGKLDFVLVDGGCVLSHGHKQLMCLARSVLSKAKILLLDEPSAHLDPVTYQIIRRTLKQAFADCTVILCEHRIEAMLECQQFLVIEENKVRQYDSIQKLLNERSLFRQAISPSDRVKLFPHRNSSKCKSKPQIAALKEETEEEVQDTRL
- MEASUREMENT_DESCRIPTION: Corrector activity at CFTR F508del mutant (unknown origin) expressed in human CFBE41o- cells co-expressing halide-sensitive yellow fluorescent protein assessed as increase in iodide influx at 1 to 10 uM preincubated with compound for 24 hrs in presence of VX-809 followed by compound washout and measured after 30 mins of stimulation with forskolin/genistein by fluorescence microplate reader
- Type: cell-based
- DETAILS: filed as activator, dose 1-10 µM
Activity calls are given as the source filed them. The rule behind the calls is not given here.
ASSAY_READOUT: Activity

{"LINE_NOTATION": "CCOC(=O)c1cc2c(n1Cc1ccc(F)c(Br)c1)-c1nc(NS(=O)(=O)c3ccccc3)ncc1CC2", "ASSAY_READOUT": "Activity", "RECORDED_RESULT": "Active"}
{"LINE_NOTATION": "CCOC(=O)c1c(Cl)c2c(n1Cc1cccc(C)c1)-c1nc(NS(=O)(=O)c3ccccc3)ncc1CC2", "ASSAY_READOUT": "Activity", "RECORDED_RESULT": "Active"}
{"LINE_NOTATION": "CCOC(=O)c1cc2c(n1Cc1cccc(C)c1)-c1nc(NS(=O)(=O)c3ccccc3)ncc1CC2", "ASSAY_READOUT": "Activity", "RECORDED_RESULT": "Active"}
{"LINE_NOTATION": "CCOC(=O)c1c(Br)c2c(n1Cc1cccc(C)c1)-c1nc(NS(=O)(=O)c3ccccc3)ncc1CC2", "ASSAY_READOUT": "Activity", "RECORDED_RESULT": "Active"}
{"LINE_NOTATION": "CCOC(=O)c1c(Br)c2c(n1Cc1cccc(Br)c1)-c1nc(NS(=O)(=O)c3ccccc3)ncc1CC2", "ASSAY_READOUT": "Activity", "RECORDED_RESULT": "Active"}
{"LINE_NOTATION": "CCOC(=O)c1c(Br)c2c(n1Cc1ccc(Br)cc1)-c1nc(NS(=O)(=O)c3ccccc3)ncc1CC2", "ASSAY_READOUT": "Activity", "RECORDED_RESULT": "Active"}
{"LINE_NOTATION": "CCOC(=O)c1c(Br)c2c(n1Cc1ccc(C)c(C)c1)-c1nc(NS(=O)(=O)c3ccccc3)ncc1CC2", "ASSAY_READOUT": "Activity", "RECORDED_RESULT": "Active"}
{"LINE_NOTATION": "CCOC(=O)c1c(Br)c2c(n1CC1CC1)-c1nc(NS(=O)(=O)c3ccccc3)ncc1CC2", "ASSAY_READOUT": "Activity", "RECORDED_RESULT": "Active"}
{"LINE_NOTATION": "CCOC(=O)c1c(Br)c2c(n1Cc1ccc(F)c(Br)c1)-c1nc(NS(=O)(=O)c3ccccc3)ncc1CC2", "ASSAY_READOUT": "Activity", "RECORDED_RESULT": "Active"}
{"LINE_NOTATION": "Cc1cccc(Cn2c(C(=O)OC(C)C)c(Br)c3c2-c2nc(NS(=O)(=O)c4ccccc4)ncc2CC3)c1", "ASSAY_READOUT": "Activity", "RECORDED_RESULT": "Active"}
